# Tested on: HT-29
# Measurement Notes: SRB colorimetric assay of cell growth and viability, HT-29
# Assay type: cell-based, human
# Experimental Parameters: 48 hours exposure
Where a SMILES comes first, the peptide text is derived from it. Bridges are numbered along the chain shown (N, C = ends). [ ]: non-standard residue; d: D form. The star is where a group is joined. d(aIle) = CC[C@H](C)[C@@H](N)C(=O)O; d(aThr) = C[C@@H](O)[C@@H](N)C(=O)O; Hexanoyl(5-Me) = CC(C)CCCC(=O)*; Orn = NCCC[C@H](N)C(=O)O; Dhb = C/C=C(\N)C(=O)O
Assay Endpoint: TGI HT-29 (Molar)
One number for each entry, in Molar.

- C/C=C1\NC(=O)[C@H](Cc2ccccc2)NC(=O)[C@@H](C(C)C)NC(=O)[C@@H]([C@@H](C)CC)NC(=O)[C@H](NC(=O)[C@H](NC(=O)[C@H](CCCN)NC(=O)[C@H]2CCCN2C(=O)[C@H](NC(=O)[C@@H](NC(=O)[C@@H]2CCCN2C(=O)CCCC(C)C)C(C)C)C(C)C)[C@@H](C)CC)[C@@H](C)OC(=O)[C@H](C(C)C)NC1=O [Compound 55, [Pro^12, noD-Val^13]-KF] ({Hexanoyl(5-Me)}-PV[dV][dP][Orn][d(aIle)][d(aThr)][d(aIle)][dV]F[Dhb]V; ester 7-C): 7.27E−06

Then there is this compound:
Value of TGI HT-29 reported for the compound C/C=C1\NC(=O)[C@H](Cc2ccccc2)NC(=O)[C@@H](C(C)C)NC(=O)[C@@H]([C@@H](C)CC)NC(=O)[C@H](NC(=O)[C@H](NC(=O)[C@H](CCCN)NC(=O)[C@H]2CCCN2C(=O)[C@H](NC(=O)[C@@H](NC(=O)[C@@H](NC(=O)[C@H](NC(=O)CCCCC(C)=O)C(C)C)[C@@H](C)O)C(C)C)C(C)C)[C@@H](C)CC)[C@@H](C)OC(=O)[C@H](C(C)C)NC1=O [Compound 27, [6-OHep^14]-KF] is 6.70E−06
